Target: hmGlu5 (Homo sapiens, UniProt P41594)
Construct: expressed in transfected cells; host or cells: HEK 293A
Sequence (P41594 21-1212): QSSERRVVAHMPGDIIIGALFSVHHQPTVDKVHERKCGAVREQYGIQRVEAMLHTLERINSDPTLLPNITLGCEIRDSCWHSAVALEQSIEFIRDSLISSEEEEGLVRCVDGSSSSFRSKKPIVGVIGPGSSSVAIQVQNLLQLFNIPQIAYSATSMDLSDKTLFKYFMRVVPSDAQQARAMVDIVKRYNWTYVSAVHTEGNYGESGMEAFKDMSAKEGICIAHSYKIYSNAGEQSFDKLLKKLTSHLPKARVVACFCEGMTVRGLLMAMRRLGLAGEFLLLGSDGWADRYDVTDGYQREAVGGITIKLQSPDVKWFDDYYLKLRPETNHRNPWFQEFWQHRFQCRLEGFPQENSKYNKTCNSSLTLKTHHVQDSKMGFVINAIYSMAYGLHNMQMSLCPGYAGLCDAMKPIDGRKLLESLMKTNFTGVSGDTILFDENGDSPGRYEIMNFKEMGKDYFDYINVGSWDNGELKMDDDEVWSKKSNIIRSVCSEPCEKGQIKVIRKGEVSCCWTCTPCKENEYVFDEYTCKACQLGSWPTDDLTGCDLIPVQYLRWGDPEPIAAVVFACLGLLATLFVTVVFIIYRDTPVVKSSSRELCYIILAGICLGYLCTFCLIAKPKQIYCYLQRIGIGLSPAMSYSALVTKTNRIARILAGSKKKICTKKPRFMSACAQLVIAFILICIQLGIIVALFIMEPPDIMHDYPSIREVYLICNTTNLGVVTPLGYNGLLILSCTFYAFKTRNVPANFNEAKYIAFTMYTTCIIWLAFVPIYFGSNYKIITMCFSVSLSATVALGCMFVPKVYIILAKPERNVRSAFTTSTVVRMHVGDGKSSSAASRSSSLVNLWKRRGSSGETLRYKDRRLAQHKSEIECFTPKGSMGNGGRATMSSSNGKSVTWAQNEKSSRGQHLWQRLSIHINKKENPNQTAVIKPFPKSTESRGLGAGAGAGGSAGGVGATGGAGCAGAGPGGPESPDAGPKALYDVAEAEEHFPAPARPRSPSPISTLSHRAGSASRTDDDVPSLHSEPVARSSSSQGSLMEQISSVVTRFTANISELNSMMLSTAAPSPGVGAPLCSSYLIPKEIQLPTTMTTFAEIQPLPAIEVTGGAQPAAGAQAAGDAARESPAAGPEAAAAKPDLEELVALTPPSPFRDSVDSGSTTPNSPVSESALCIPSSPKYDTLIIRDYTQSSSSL
Assay: mGlu5 Ca2+ flux assay in HEK 293A cells (negative allosteric modulation of glutamate EC80 response)
Assay type: cell-based
Settings: HEK293-A; % Glu max at 30 μM; read-out: hmGlu5 NAM Emin (%)
QUANTITY KIND: remaining activity at 30 µM (%)

Here is how some molecules turned out for remaining activity at 30 µM.
• Cc1csc(-c2nc(-c3cc(-c4cncc(F)c4)c(F)c(C)n3)no2)n1 = 9
• Cc1cc(O[C@@H]2CCOC2)cc(-c2noc(-c3ccc(F)cn3)n2)n1 = 21

[I] Cc1nc(-c2nc(-c3cscn3)no2)cc(-c2cncc(F)c2)c1F
[II] Cc1ccncc1-c1cc(-c2noc(-c3cc(Cl)ccn3)n2)nc(C)c1F
[III] Cc1nc(-c2noc(C3CCCCC3)n2)cc(-c2cncc(F)c2)c1F
Hey, quick one: sort these by remaining activity at 30 µM, largest value first please. List labels; respect the requested ordering.
III, I, II

[a] Cc1csc(-c2nc(-c3cc(-c4cnc(C)s4)c(F)c(C)n3)no2)n1
[b] Fc1ccc(-c2noc(-c3cc(-c4cncc(F)c4)cc(C(F)F)n3)n2)nc1
[c] Cc1ccncc1-c1cc(-c2noc(-c3cccnn3)n2)nc(C)c1F
[d] Cc1cccc(-c2nc(-c3cc(-c4cnccc4C)c(F)c(C)n3)no2)n1
[e] COc1ncc(-c2cc(-c3nnc(-c4ccc(F)cn4)o3)nc(C)c2F)cc1F
Put the entries in order of remaining activity at 30 µM, starting with the largest number. Your task in answering is to list the labels in the requested order.
c, a, e, d, b
